Cited source: paper PMC9564337

Test: in vivo
Settings: female, NMRI nude (nu/nu), mouse, total radioactivity, Uptake (%ID/g) liver
Protocol: 8–12 weeks old female NMRI nude (nu/nu) mice (body weight 22–32 g) (Charles River, Sulzfeld, Germany) were kept under specified pathogen free (SPF) conditions at 23 °C, 55% relative humidity and a 12 h light/dark cycle in the central animal facility of the University of Regensburg using type III cages from Tecniplast (Hohenpeißenberg, Germany). […] Aliquots of the tracer stock were diluted in PBS to give a volume of 200 µL. […] Mice were killed 45 min p.i. and analyzed as described above. […]
MEASURED ATTRIBUTE: tissue uptake at 25 min (%ID/g)
Give bare numbers, in %ID/g.

The value of tissue uptake at 25 min measured for the compound CC[C@H](C)[C@H](NC(=O)[C@@H](NC(=O)[C@@H]1CCCN1C(=O)[C@H](CCCNC(=N)N)NC(=O)[C@H](CCCNC(N)=NC(=O)NCCCCNC(=O)CN1CCN(CC(=O)O)CCN(CC(=O)O)CCN(CC(=O)O)CC1)NC)C(C)(C)c1ccc(O)cc1)C(=O)N[C@@H](CC(C)C)C(=O)O [[^68Ga]56, metal not drawn] turned out to be 5.7
